Target: PCSK9Δhelix (Homo sapiens, UniProt Q8NBP7)
Construct: Human PCSK9 construct M1-Q692 with an engineered TEV site (residue deletion Y166, R167); made in house; host or cells: CHO
Sequence (Q8NBP7 with tags, fused parts or gaps limits assumed): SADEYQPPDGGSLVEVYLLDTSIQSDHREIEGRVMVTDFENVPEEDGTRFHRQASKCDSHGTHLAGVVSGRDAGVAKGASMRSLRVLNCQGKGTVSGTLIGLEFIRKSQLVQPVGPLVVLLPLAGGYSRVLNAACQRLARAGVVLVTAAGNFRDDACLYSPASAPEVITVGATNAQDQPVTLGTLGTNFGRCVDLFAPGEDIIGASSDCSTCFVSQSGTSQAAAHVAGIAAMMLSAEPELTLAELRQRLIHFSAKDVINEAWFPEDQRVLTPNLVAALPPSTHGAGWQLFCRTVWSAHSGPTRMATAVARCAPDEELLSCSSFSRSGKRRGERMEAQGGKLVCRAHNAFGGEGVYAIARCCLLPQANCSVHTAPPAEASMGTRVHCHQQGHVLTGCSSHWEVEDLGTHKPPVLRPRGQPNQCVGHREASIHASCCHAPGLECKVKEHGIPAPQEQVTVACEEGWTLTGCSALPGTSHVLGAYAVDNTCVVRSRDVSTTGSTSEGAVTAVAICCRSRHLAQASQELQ
Sequence (Q8NBP7 31-152 partner limits assumed): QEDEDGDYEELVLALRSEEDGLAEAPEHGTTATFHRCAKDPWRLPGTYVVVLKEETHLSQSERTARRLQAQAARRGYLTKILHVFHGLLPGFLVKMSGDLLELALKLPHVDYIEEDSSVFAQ
Assay: PCSK9Δhelix/Ab20 TR-FRET binding assay
Details: TR-FRET; Table 8E, additional compounds; read-out: PCSK9Δhelix/Ab20 IC50
Square brackets hold non-standard residues; d marks the D form. Peptide text beside a SMILES is read from it. * marks the point of attachment. X44 = Cn1cc([C@H]2C[C@H]2C(=O)*)cn1; hArg = N=C(N)NCCCC[C@H](N)C(=O)O; X8 = O=C(c1ccc(N2CCOCC2)nc1)*; Pentanoyl = CCCCC(=O)*
Give IC50 for every item shown.
Note: unit µM is implicit; provide only the numeric part.

Data request: Fill in the blank: the reported IC50 of CC[C@H](C)[C@H](NC(=O)[C@H](CCCNC(=N)N)NC(=O)[C@@H](NC(=O)[C@H](CC(C)C)NC(=O)[C@H](CC(N)=O)NC(=O)[C@H](Cc1c[nH]c2ccccc12)NC(=O)[C@@H]1C[C@@H]1c1cnn(C)c1)C(C)C)C(=O)NCC(=O)N[C@@H](CC(C)C)C(=O)N[C@@H](CC(C)C)C(=O)N[C@@H](CCCNC(=N)N)C(N)=O [Compound 135] (X44-WNLVRIGLLR-NH2) is ____.
Data returned: 10

Data request: Fill in the blank: the reported IC50 of CCCCC(=O)N[C@@H](Cc1c[nH]c2ccccc12)C(=O)N[C@@H](CC(N)=O)C(=O)N[C@@H](CC(C)C)C(=O)N[C@H](C(=O)N[C@@H](CCCCNC(=N)N)C(=O)N[C@H](C(=O)NCC(=O)N[C@@H](CC(C)C)C(=O)N[C@@H](CC(C)C)C(=O)N[C@@H](CCCNC(=N)N)C(=O)O)[C@@H](C)CC)C(C)C [Compound 195, n-BuC(O)-WNLV(homoR)IGLLR] (Pentanoyl-WNLV[hArg]IGLLR-OH) is ____.
Data returned: 1.7

Data request: Fill in the blank: the reported IC50 of CC[C@H](C)[C@H](NC(=O)[C@H](CCCCNC(=N)N)NC(=O)[C@@H](NC(=O)[C@H](CC(C)C)NC(=O)[C@H](CC(N)=O)NC(=O)[C@H](Cc1c[nH]c2ccccc12)NC(=O)c1ccc(N2CCOCC2)nc1)C(C)C)C(=O)NCC(=O)N[C@@H](CC(C)C)C(=O)N[C@@H](CC(C)C)C(=O)N[C@@H](CCCNC(=N)N)C(N)=O [Compound 219] (X8-WNLV[hArg]IGLLR-NH2) is ____.
Data returned: 0.68
